test: Rat brain disposition after oral gavage; type: in vivo, male Sprague-Dawley rats; conditions: male, Sprague-Dawley, plasma, oral 5 mg/kg, 0.5 h, mean ± stdev, n=3, read-out: Total plasma concentration
Measured parameter: concentration at 0.5 h (µg/mL)

* Cc1ncccc1-n1nc2c(c1C)Nc1ncc3c(Cl)nn(c3n1)CCCO2 | 0.362

---

test: Rat brain disposition after oral gavage; type: in vivo, male Sprague-Dawley rats; settings: male, Sprague-Dawley, plasma, oral 10 mg/kg, 1 h, mean ± stdev, n=3, read-out: Total plasma concentration
Measured parameter: concentration at 1 h

• COc1ncccc1-n1nc2c(c1C)Nc1ncc3c(Cl)nn(c3n1)CCCO2 [Example 1] = 245 ng/mL
